System: MDA-MB-231
Assay: In vitro cell growth inhibition assay (MTT)
Assay type: cell-based, human
Settings: MDA-MB-231 human breast cancer cell line, 48 h, MTT; read-out: IC50 MDA-MB-231
Sorting guide: entries reporting IC50 beneath 600 nM go in the true (1) pile, the rest go in the false (0) pile.

Does the reported IC50 of C=C1C(=O)N(c2cc(OC)c(OC)c(OC)c2)[C@H]1c1ccc(OC)c(OC(=O)c2ccccc2)c1 [Compound 18] stay below 600 nM?
false (0)

Report whether reported IC50 is lower than 600 nM (strictly) for COc1ccc([C@@H]2[C@H](CO)C(=O)N2c2cc(OC)c(OC)c(OC)c2)cc1O [Compound 100]
true (1)

Is IC50 strictly under 600 nM for the entry C=C1C(=O)N(c2cc(OC)c(OC)c(OC)c2)[C@H]1c1ccc(OC)c(OS(=O)(=O)F)c1 [Compound 107] ?
true (1)

Is the reported IC50 for COc1ccc([C@H]2/C(=C/c3ccccc3)C(=O)N2c2cc(OC)c(OC)c(OC)c2)cc1O [Compound 57] strictly below 600 nM?
false (0)

Does COc1ccc([C@@H]2N(c3cc(OC)c(OC)c(OC)c3)C(=O)C23CC3)cc1O [Compound 105] have IC50 strictly under 600 nM?
true (1)

Confirm or reject: IC50 of COc1ccc([C@@H]2[C@@H](CO)C(=O)N2c2cc(OC)c(OC)c(OC)c2)cc1O [Compound 99] lies strictly below 600 nM
false (0)

Quick check: IC50 of C=C1C(=O)N(c2cccc(OC)c2)[C@H]1c1ccc(OC)c(O)c1 [Compound 51] under 600 nM?
false (0)

Is IC50 of C=C1C(=O)N(c2cc(OC)c(OC)c(OC)c2)[C@H]1c1ccc(OC)c(OCC)c1 [Compound 3] strictly below 600 nM?
false (0)

---

Test system: MDA-MB-231
Assay: In vitro cell growth inhibition assay (MTT)
Type: cell-based, human
Settings: MDA-MB-231 human breast cancer cell line, 48 h, MTT; read-out: IC50 MDA-MB-231
MEASURE: IC50

Reported IC50 for "C=C1C(=O)N(c2cc(OC)c(OC)c(OC)c2)[C@H]1c1ccc(OC)c(OCCO)c1" was 845 nM

GET /value?item= "C=C1C(=O)N(c2cc(OC)c(OC)c(OC)c2)[C@H]1c1ccc(OC)c(NS(N)(=O)=O)c1" &field=IC50 returns 841 nM

"COc1ccc([C@H]2/C(=C/c3ccc(C(C)(C)C)cc3)C(=O)N2c2cc(OC)c(OC)c(OC)c2)cc1O" has a reported IC50 of > 20000 nM

Reported IC50 of "C=C1C(=O)N(c2cc(OC)c(OC)c(OC)c2)[C@H]1c1ccc(OC)c(OC(=O)N2CCOCC2)c1" : > 10000 nM

IC50 reading for "COc1ccc([C@H]2[C@H](C)C(=O)N2c2cc(OC)c(OC)c(OC)c2)cc1OS(=O)(=O)F" : 23 nM

IC50 reading for "COc1ccc([C@H]2[C@H](C)C(=O)N2c2cc(OC)c(OC)c(OC)c2)cc1N" : 32 nM

Kindly note the recorded IC50 for "C=C1C(=O)N(c2cc(OC)c(OC)c(OC)c2)[C@H]1c1ccc(OC)c(OCCCO)c1" , which is 1920 nM

GET /value?item= "C=C1C(=O)N(c2cc(OC)c(OC)c(OC)c2)[C@H]1c1ccc(OC)c(OCCCCl)c1" &field=IC50 returns 4150 nM

For record "COc1ccc([C@H]2[C@H](n3cc(CO)nn3)C(=O)N2c2cc(OC)c(OC)c(OC)c2)cc1O" the listed IC50 is 28 nM

IC50 measured on "COc1ccc([C@@H]2[C@@H](C)C(=O)N2c2cc(OC)c(OC)c(OC)c2)cc1O" = 1080 nM

Briefly, IC50 measured for "C=C1C(=O)N(c2cc(OC)c(OC)c(OC)c2)[C@H]1c1ccc(OC)c(OC(=O)[C@@H](NC(=O)OC(C)(C)C)C(C)C)c1" : 506 nM

Recorded result, "C=C1C(=O)N(c2cc(OC)c(OC)c(OC)c2)[C@H]1c1ccc(OC)c(OC(C)=O)c1" , IC50: 133 nM

IC50 reading for "C=C1C(=O)N(c2cc(OC)c(OC)c(OC)c2)[C@H]1c1ccc(OC)c(C(=O)OC)c1" : 479 nM

Note to self: IC50 recorded for "COc1ccc([C@@H]2[C@H](C)C(=O)N2c2cc(OC)c(OC)c(OC)c2)cc1O" was 5140 nM

Input "COc1ccc([C@H]2CC(=O)N2c2cc(OC)c(OC)c(OC)c2)cc1O" . Output IC50: 28 nM

Recorded result, "C=C1C(=O)N(c2ccc(OC)c(OC)c2)[C@H]1c1ccc(OC)c(O)c1" , IC50: 6100 nM

Documented IC50 of "C=C1C(=O)N(c2cc(OC)c(OC)c(OC)c2)[C@H]1c1ccc(OC)c(OC(=O)c2ccccc2OC)c1" : 218 nM

Lab book: IC50 of "C=C1C(=O)N(c2cc(OC)c(OC)c(OC)c2)[C@H]1c1ccc(OC)c(O)c1" noted as 234 nM

IC50 reading for "C=C1C(=O)N(c2cc(OC)c(OC)c(OC)c2)[C@H]1c1ccc(OC)c(OC(=O)c2ccc(OC)cc2)c1" : 284 nM

The reported IC50 of the molecule "C=C1C(=O)N(c2cc(OC)c(OC)c(OC)c2)[C@H]1c1ccc(OC)c(OC(=O)[C@H](C)NC(=O)OC(C)(C)C)c1" was 496 nM

molecule "COc1ccc([C@H]2[C@@H](CC[Si](C)(C)C)C(=O)N2c2cc(OC)c(OC)c(OC)c2)cc1O" , IC50 observed: 6440 nM
